System: absorption of sodium from the intestinal lumen
Test: Inhibition of intestinal sodium absorption: urinary sodium (uNa) 16 h after single oral dose in rats
Type: in vivo, rat
Conditions: oral gavage, dose 3 mg/kg, 16 h post-dose
observed.property: Urine Na % of control (%)

{"structure.smiles": "CC(=O)C(CCC(=O)NCCOCCOCCNS(=O)(=O)c1cccc([C@@H]2CN(C)Cc3c(Cl)cc(Cl)cc32)c1)(CCC(=O)NCCOCCOCCNS(=O)(=O)c1cccc([C@@H]2CN(C)Cc3c(Cl)cc(Cl)cc32)c1)CCC(=O)NCCOCCOCCNS(=O)(=O)c1cccc([C@@H]2CN(C)Cc3c(Cl)cc(Cl)cc32)c1", "unit": "%", "observed.value": 42}
{"structure.smiles": "CN1Cc2c(Cl)cc(Cl)cc2[C@H](c2cccc(S(=O)(=O)NCCOCCOCCOCCNC(=O)CCC(N)(CCC(=O)NCCOCCOCCOCCNS(=O)(=O)c3cccc([C@@H]4CN(C)Cc5c(Cl)cc(Cl)cc54)c3)CCC(=O)NCCOCCOCCOCCNS(=O)(=O)c3cccc([C@@H]4CN(C)Cc5c(Cl)cc(Cl)cc54)c3)c2)C1", "unit": "%", "observed.value": 30}

====

Tested on: absorption of sodium from the intestinal lumen
Assay: Inhibition of intestinal sodium absorption: urinary sodium (uNa) 16 h after single oral dose in rats
Type: in vivo, rat
Settings: oral gavage, dose 3 mg/kg, 16 h post-dose
Urine Na % of control under 60% gets Y, anything at or over 60% gets N.

{"structure.smiles": "CN1Cc2c(Cl)cc(Cl)cc2[C@H](c2cccc(S(=O)(=O)NCCOCCOCCNC(=O)CCC(CCC(=O)NCCOCCOCCNS(=O)(=O)c3cccc([C@@H]4CN(C)Cc5c(Cl)cc(Cl)cc54)c3)(CCC(=O)NCCOCCOCCNS(=O)(=O)c3cccc([C@@H]4CN(C)Cc5c(Cl)cc(Cl)cc54)c3)NC(=O)NC(CO)(CO)CO)c2)C1", "answer.label": "Y"}
{"structure.smiles": "CN1Cc2c(Cl)cc(Cl)cc2[C@H](c2cccc(S(=O)(=O)NCCOCCOCCNC(=O)NCCCC(CCCNC(=O)NCCOCCOCCNS(=O)(=O)c3cccc([C@@H]4CN(C)Cc5c(Cl)cc(Cl)cc54)c3)(CCCNC(=O)NCCOCCOCCNS(=O)(=O)c3cccc([C@@H]4CN(C)Cc5c(Cl)cc(Cl)cc54)c3)NC(=O)NC[C@H](O)[C@@H](O)[C@H](O)[C@H](O)CO)c2)C1", "answer.label": "Y"}
{"structure.smiles": "CN1Cc2c(Cl)cc(Cl)cc2[C@H](c2cccc(S(=O)(=O)NCCOCCOCCNC(=O)NCCC(N)(CCNC(=O)NCCOCCOCCNS(=O)(=O)c3cccc([C@@H]4CN(C)Cc5c(Cl)cc(Cl)cc54)c3)CCNC(=O)NCCOCCOCCNS(=O)(=O)c3cccc([C@@H]4CN(C)Cc5c(Cl)cc(Cl)cc54)c3)c2)C1", "answer.label": "Y"}
{"structure.smiles": "CN1Cc2c(Cl)cc(Cl)cc2[C@H](c2cccc(S(=O)(=O)NCCOCCOCCNC(=O)CCC(CCC(=O)NCCOCCOCCNS(=O)(=O)c3cccc([C@@H]4CN(C)Cc5c(Cl)cc(Cl)cc54)c3)(CCC(=O)NCCOCCOCCNS(=O)(=O)c3cccc([C@@H]4CN(C)Cc5c(Cl)cc(Cl)cc54)c3)NC(=O)CCC(=O)O)c2)C1", "answer.label": "Y"}
{"structure.smiles": "CN1Cc2c(Cl)cc(Cl)cc2[C@H](c2cccc(S(=O)(=O)N(C)CCOCCOCCNC(=O)CCN(CCC(=O)NCCOCCOCCN(C)S(=O)(=O)c3cccc([C@@H]4CN(C)Cc5c(Cl)cc(Cl)cc54)c3)CCC(=O)NCCOCCOCCN(C)S(=O)(=O)c3cccc([C@@H]4CN(C)Cc5c(Cl)cc(Cl)cc54)c3)c2)C1", "answer.label": "N"}
{"structure.smiles": "CN1Cc2c(Cl)cc(Cl)cc2[C@H](c2cccc(S(=O)(=O)NCCOCCOCCNC(=O)CCC(CCC(=O)NCCOCCOCCNS(=O)(=O)c3cccc([C@@H]4CN(C)Cc5c(Cl)cc(Cl)cc54)c3)(CCC(=O)NCCOCCOCCNS(=O)(=O)c3cccc([C@@H]4CN(C)Cc5c(Cl)cc(Cl)cc54)c3)NC(=O)Cc3nnn[nH]3)c2)C1", "answer.label": "Y"}
